This listing pairs molecules with measured IC50.
System: recombinant human HDACs
Assay: HDAC enzymatic assay (LabChip capillary electrophoresis)
Assay type: biochemical
Conditions: 5 nM HDAC enzyme, 1 uM substrate, 5 hours pre-incubation, 17 hours reaction at 25°C; isoform not given
Experimental: All recombinant human HDACs were purchased from BPS Bioscience. The substrate, FAM-TSRHK(AC)KL-CONH, was synthesized at NanoSyn. […] Change in the relative fluorescence intensity of the substrate and product peaks reflects enzyme activity. Reaction progress was determined as the product to sum ratio (PSR): P/(S+P), where P is the peak height of the product peptide and S is the peak height of the substrate peptide. […] IC50 values were calculated using a 4 Parameter Logistic Model.

# count of solved cases: 3
>>> result("Cc1cc(F)ccc1-c1ccc(N)c(NC(=O)N2Cc3cnc(CN(C)C)cc3C2)n1")
"> 5000 nM"
>>> result("CN1CC2CN(C(=O)Nc3nc(-n4cccn4)ccc3N)CC2C1 (stereo not shown)")
"> 5000 nM"
>>> result("CN1CC(Cn2ncc3c2CN(C(=O)Nc2nc(-c4ccc(F)cc4)ccc2N)C3)C1")
"500 to 5000 nM"

response.value for "Nc1ccc(-c2ccc(F)cc2)nc1NC(=O)N1Cc2ccc(CO)cc2C1" (field: IC50) = 100 to 500 nM

###

Biological target: UniProt Q92769
Test: Reporter displacement assay (HDAC2)
Details: 20 nM HDAC2, 180 nM reporter probe, read after 4 hours; Kd by Cheng Prusoff equation
pKd: −log10 of the molar value.
metric: pKd

# count of solved cases: 4
>>> result("Nc1cnc(-c2ccc(F)cc2)nc1NC(=O)N1CCCC1 [Compound 110]")
"< 5.30"
>>> result("Nc1cc(F)c(-c2ccc(F)c(F)c2)cc1NC(=O)N1CCCC1 [Compound 116]")
"5.30 to 6.30"
>>> result("Nc1cc(F)c(-c2ccc(F)cc2)cc1NC(=O)N1CCCC1 [Compound 114]")
"< 5.30"
>>> result("Nc1cnc(-c2ccc(F)cc2)nc1NC(=O)N1Cc2nccnc2C1 [Compound 121]")
"< 5.30"

response.value for Nc1ccc(-c2ccc(F)c(F)c2)c(F)c1NC(=O)N1CCCC1 [Compound 117] (field: pKd) = < 5.30

###

Test system: recombinant human HDACs
Test: HDAC enzymatic assay (LabChip capillary electrophoresis)
Format: biochemical
Settings: 5 nM HDAC enzyme, 1 uM substrate, 5 hours pre-incubation, 17 hours reaction at 25°C; isoform not given
This listing pairs molecules with measured IC50.

# count of solved cases: 3
>>> result("CN1CCc2sc(C(=O)Nc3nc(-c4ccco4)ccc3N)nc2C1")
"0.1 to 0.5 µM"
>>> result("CN1CCN(c2ccc3c(n2)CN(C(=O)Nc2nc(-c4ccc(F)cc4)ccc2N)C3)CC1")
"0.1 to 0.5 µM"
>>> result("Nc1ccc(-n2cccn2)nc1NC(=O)N1CC2CN(CCF)CC2C1 (stereo not drawn)")
"> 5 µM"

response.value for CN1CCC(N2CC3CN(C(=O)Nc4nc(-c5ccc(F)cc5)ccc4N)CC3C2)CC1 (stereo not drawn) (field: IC50) = 0.5 to 5 µM

response.value for Nc1ccc(-c2ccc(F)cc2)nc1NC(=O)N1CC2CN(C3CCOCC3)CC2C1 (stereo not drawn) (field: IC50) = > 5 µM

response.value for "Nc1ccc(-c2ccccc2)nc1NC(=O)c1cn2c(n1)CNCC2" (field: IC50) = 0.5 to 5 µM

response.value for "CN1CCN(Cc2ccc3c(c2)CN(C(=O)Nc2nc(-c4ccc(F)cc4)ccc2N)C3)CC1" (field: IC50) = 0.1 to 0.5 µM

###

Molecular target: HDAC2 (Homo sapiens)
Construct: purchased Proteros
Sequence (Q92769 whole entry): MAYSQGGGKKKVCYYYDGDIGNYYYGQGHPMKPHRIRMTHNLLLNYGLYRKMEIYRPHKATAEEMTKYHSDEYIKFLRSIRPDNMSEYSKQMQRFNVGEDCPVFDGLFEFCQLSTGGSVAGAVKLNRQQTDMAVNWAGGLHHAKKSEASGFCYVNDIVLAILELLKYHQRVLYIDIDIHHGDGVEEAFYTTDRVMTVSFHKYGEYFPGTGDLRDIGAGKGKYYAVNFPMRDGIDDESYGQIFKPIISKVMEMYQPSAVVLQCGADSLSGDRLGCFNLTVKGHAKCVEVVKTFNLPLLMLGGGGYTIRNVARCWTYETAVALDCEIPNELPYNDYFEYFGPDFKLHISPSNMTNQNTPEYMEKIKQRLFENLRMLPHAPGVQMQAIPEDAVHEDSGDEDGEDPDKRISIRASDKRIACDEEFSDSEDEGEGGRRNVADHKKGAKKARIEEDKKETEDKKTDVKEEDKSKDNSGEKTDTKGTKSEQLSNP
Assay: Reporter displacement assay (HDAC2)
Format: binding
metric: residence time (min)

# count of solved cases: 4
>>> result("Nc1ccc(-c2ccncc2)nc1NC(=O)N1CCCC1 [Compound 111]")
540
>>> result("Nc1cnc(-c2ccc(F)cc2)nc1NC(=O)N1Cc2nccnc2C1 [Compound 121]")
1200
>>> result("Nc1ccc(-c2ccc(F)c(F)c2)c(F)c1NC(=O)N1CCCC1 [Compound 117]")
42
>>> result("Nc1cc(F)c(-c2ccc(F)cc2)cc1NC(=O)N1Cc2nccnc2C1 [Compound 119]")
1200

I. Nc1cnc(-c2ccncc2)cc1NC(=O)N1CCCC1 [Compound 108]
II. Nc1cc(F)c(-c2ccc(F)cc2)cc1NC(=O)N1Cc2ccncc2C1 [Compound 100]
Of the pair I and II , name the member with the lesser recorded residence time. Your choice should be expressed through its label.
II

###

Tested on: recombinant human HDACs
Assay: HDAC enzymatic assay (LabChip capillary electrophoresis)
Assay type: biochemical
Details: 5 nM HDAC enzyme, 1 uM substrate, 5 hours pre-incubation, 17 hours reaction at 25°C; isoform not given
pIC50: −log10 of the molar value.
metric: pIC50

# count of solved cases: 3
>>> result("CN1CCc2sc(C(=O)Nc3nc(-c4ccc(F)cc4)ccc3N)nc2C1 [Compound 153]")
"6.30 to 7.00"
>>> result("CN1CCN(c2ccc3c(c2)CN(C(=O)Nc2nc(-c4ccc(F)cc4)ccc2N)C3)CC1 [Compound 374]")
"6.30 to 7.00"
>>> result("CC(=O)N1CCN(C(=O)Nc2nn(-c3ccccc3)cc2N)CC1 [Compound 360]")
"< 5.30"

response.value for Nc1ccc(-c2ccc(F)cc2)nc1NC(=O)N1Cc2cc(F)cnc2C1 [Compound 186] (field: pIC50) = 5.30 to 6.30

###

System: recombinant human HDACs
Assay: HDAC enzymatic assay (LabChip capillary electrophoresis)
Type: biochemical
Settings: 5 nM HDAC enzyme, 1 uM substrate, 5 hours pre-incubation, 17 hours reaction at 25°C; isoform not given
metric: IC50

# count of solved cases: 6
>>> result("Nc1ccc(-n2cccn2)nc1NC(=O)N1CC2CC(N3CC(F)C3)CC2C1 (stereo not shown) [Compound 190]")
"> 5000 nM"
>>> result("Nc1ccc(-c2ccc(F)cc2)nc1NC(=O)N1CC2CC(N3CC(F)C3)CC2C1 (stereo not shown) [Compound 188]")
"500 to 5000 nM"
>>> result("Nc1ccc(-n2cccn2)nc1NC(=O)C1CN(Cc2ccccc2)C1 [Compound 205]")
"> 5000 nM"
>>> result("Nc1ccc(-c2ccccc2)nc1NC(=O)N1CCn2ccnc2C1 [Compound 197]")
"> 5000 nM"
>>> result("CN1CCN(c2cc3c(cn2)CN(C(=O)Nc2nc(-c4ccc(F)cc4)ccc2N)C3)CC1 [Compound 160]")
"100 to 500 nM"
>>> result("CN1CCC(N2CCC(C(=O)Nc3nc(-c4ccc(F)cc4)ccc3N)CC2)CC1 [Compound 368]")
"500 to 5000 nM"

response.value for CN(C1CCOC1)C1CC2CN(C(=O)Nc3nc(-c4ccc(F)cc4)ccc3N)CC2C1 (stereo not shown) [Compound 237] (field: IC50) = > 5000 nM

response.value for Nc1ccc(-c2ccc(F)cc2)nc1NC(=O)N1Cc2cc(CN3CCCC3)cnc2C1 [Compound 155] (field: IC50) = 100 to 500 nM

response.value for Nc1ccc(-c2ccc(F)cc2)nc1NC(=O)N1CC2CN(Cc3ccccc3F)CC2C1 (stereo not shown) [Compound 176] (field: IC50) = 500 to 5000 nM

response.value for Nc1ccc(-c2ccc(F)cc2)nc1NC(=O)N1Cc2cncnc2C1 [Compound 277] (field: IC50) = 500 to 5000 nM

response.value for CC(O)c1ccc2c(c1)CN(C(=O)Nc1nc(-c3ccc(F)cc3)ccc1N)C2 (stereo not shown) [Compound 394] (field: IC50) = 100 to 500 nM

response.value for Nc1ccc(-c2ccc(F)cc2)nc1NC(=O)C1CN(c2ccccn2)C1 [Compound 192] (field: IC50) = > 5000 nM

response.value for Nc1cn(-c2ccccc2)nc1NC(=O)C1CCN(C2COC2)CC1 [Compound 359] (field: IC50) = > 5000 nM

response.value for Nc1ccc(-c2ccc(F)cc2)nc1NC(=O)N1CCC(F)(F)C1 [Compound 364] (field: IC50) = 500 to 5000 nM

response.value for CN1CCC(N2C[C@@H]3[C@H](C2)[C@H]3C(=O)Nc2nc(-c3ccc(F)cc3)ccc2N)CC1 (stereo in doubt) [Compound 263] (field: IC50) = 500 to 5000 nM

response.value for Nc1ccc(-c2ccc(F)cc2)nc1NC(=O)N1Cc2cc(CN3CCC(F)(F)C3)cnc2C1 [Compound 273] (field: IC50) = 100 to 500 nM

response.value for Nc1ccc(-n2cccn2)nc1NC(=O)N1CC2CN(Cc3ccccc3F)CC2C1 (stereo not shown) [Compound 177] (field: IC50) = > 5000 nM

response.value for Nc1ccc(-c2ccc(F)cc2)nc1NC(=O)N1Cc2ccc(CN3CCC(C(F)(F)F)C3)cc2C1 (stereo not shown) [Compound 408] (field: IC50) = 100 to 500 nM
